- ASSAY_METHOD_TEXT: Oral bioavailability in rat
- TEST_SETTINGS: in vivo
ASSAY_READOUT: bioavailability

Query: # return recorded bioavailability for input Nc1nc(=O)n([C@@H]2CS[C@H](CO)O2)cc1F [EMTRICITABINE]
Reply: ~58%

----------
- Tested on: Human immunodeficiency virus 1
- ASSAY_METHOD_TEXT: Antiviral activity against HIV-1 LAV infected in human CEM cells
- Type: functional, organism-based
- TEST_SETTINGS: Human immunodeficiency virus 1, LAV, CCRF-CEM
pIC50: −log10 of the molar value.
Returns y if the recorded pIC50 is greater than or equal to 7, and n otherwise.

Query: State whether the measured pIC50 reaches 7, counting equality as reaching it, for Nc1nc(=O)n([C@@H]2CS[C@H](CO)O2)cc1F
Reply: y

Query: State whether the measured pIC50 reaches 7, counting equality as reaching it, for Nc1nc(=O)n([C@H]2CS[C@@H](CO)O2)cc1F
Reply: n
